Origin of values: patent US20210221785A1

target entity: His-His-USP7 (aa208-560, |C315A|) (Homo sapiens, UniProt Q93009, C315A)
Construct: His-His-USP7 (aa208-560, |C315A|); His-His (N)
Sequence (Q93009 208-560 C315A): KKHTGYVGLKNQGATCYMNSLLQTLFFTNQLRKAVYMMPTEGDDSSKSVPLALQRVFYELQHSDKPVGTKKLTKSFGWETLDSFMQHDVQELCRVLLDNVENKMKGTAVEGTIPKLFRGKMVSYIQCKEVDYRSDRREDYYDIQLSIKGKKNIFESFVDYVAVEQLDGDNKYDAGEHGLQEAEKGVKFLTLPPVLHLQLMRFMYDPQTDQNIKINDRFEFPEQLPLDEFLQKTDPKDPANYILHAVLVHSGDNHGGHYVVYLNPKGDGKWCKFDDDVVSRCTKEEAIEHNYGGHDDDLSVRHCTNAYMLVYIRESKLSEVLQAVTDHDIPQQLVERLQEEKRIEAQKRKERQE
assay overview: Evaluation of the inhibition of USP7 by the Fluorescence Intensity (FLINT) readings
Type: biochemical
details: 0.25 nM His-His-USP7, compound incubated 60 minutes at 30° C., 500 nM Ubiquitin-Rhodamine-110 substrate; 50% reduction in kinetic rate
assay metric: IC50 (nM)

(P) CNCc1ccc(Oc2ncn(CC3(O)CCN(C(=O)[C@@H]4CCC(F)(F)C[C@H]4c4ccccc4)CC3)c(=O)c2N)cc1
(Q) COc1nccnc1C#C[C@@]1(F)CC[C@@H](C(=O)N2CCC(O)(Cn3cnc(Oc4ccc(F)cc4)c(N)c3=O)CC2)[C@H](c2ccccc2)C1
Challenge: // pick min by IC50: P , Q Give the chosen item's label as your response.
Response given: P
(P: 6.5 nM, Q: 24.7 nM)

(A) Nc1c(Oc2cc(F)cc(F)c2)ncn(CC2(O)CCN(C(=O)[C@@H]3CCC(F)(F)C[C@H]3c3ccccc3)CC2)c1=O
(B) Nc1c(Oc2cccc(OC(F)(F)F)c2)ncn(CC2(O)CCN(C(=O)[C@@H]3CCC(F)(F)C[C@H]3c3ccccc3)CC2)c1=O
Challenge: Between A and B , which one shows the larger IC50 value? Give the chosen item's label as your response.
Response given: A
(A: 472 nM, B: 247 nM)

###

target entity: His-His-USP7 (aa208-560, |C315A|) (Homo sapiens, UniProt Q93009, C315A)
Construct: His-His-USP7 (aa208-560, |C315A|); His-His (N)
assay overview: Evaluation of the inhibition of USP7 by the Fluorescence Intensity (FLINT) readings
Format: biochemical
details: 0.25 nM His-His-USP7, compound incubated 60 minutes at 30° C., 500 nM Ubiquitin-Rhodamine-110 substrate; 50% reduction in kinetic rate
assay metric: IC50 (µM)

Sample records with IC50:
compound	target entity	IC50 (µM)
NC(=O)CCc1ccc(Oc2ncn(CC3(O)CCN(C(=O)[C@@H]4CCC(F)(F)C[C@H]4c4ccccc4)CC3)c(=O)c2N)cc1 [Example 67]	His-His-USP7 (aa208-560, |C315A|) (Homo sapiens, UniProt Q93009, C315A)	0.075
Nc1c(Oc2ccc(CNCC(F)(F)F)cc2)ncn(CC2(O)CCN(C(=O)[C@@H]3CCC(F)(F)C[C@H]3c3ccccc3)CC2)c1=O [Example 73]	His-His-USP7 (aa208-560, |C315A|) (Homo sapiens, UniProt Q93009, C315A)	0.113
Nc1c(Oc2ccc(CNC3CC3)cc2)ncn(CC2(O)CCN(C(=O)[C@@H]3CCC(F)(F)C[C@H]3c3ccccc3)CC2)c1=O [Example 77]	His-His-USP7 (aa208-560, |C315A|) (Homo sapiens, UniProt Q93009, C315A)	0.025
NC(=O)c1cccc(Oc2ncn(CC3(O)CCN(C(=O)[C@@H]4CCC(F)(F)C[C@H]4c4ccccc4)CC3)c(=O)c2N)c1 [Example 62]	His-His-USP7 (aa208-560, |C315A|) (Homo sapiens, UniProt Q93009, C315A)	0.1
Nc1c(Sc2ccccc2)ncn(CC2(O)CCN(C(=O)[C@@H]3CCC(F)(F)C[C@H]3c3ccccc3)CC2)c1=O [Example 30]	His-His-USP7 (aa208-560, |C315A|) (Homo sapiens, UniProt Q93009, C315A)	0.151
COc1ccc(Oc2ncn(CC3(O)CCN(C(=O)[C@@H]4CCC(F)(F)C[C@H]4c4ccccc4)CC3)c(=O)c2N)cc1 [Example 3]	His-His-USP7 (aa208-560, |C315A|) (Homo sapiens, UniProt Q93009, C315A)	0.0802
Nc1c(Oc2ccc(F)cc2)ncn(C[C@@]2(O)CCN(C(=O)[C@@H]3CC[C@](F)(C#Cc4cccnn4)C[C@H]3c3ccccc3)CC2(F)F)c1=O [Example 168]	His-His-USP7 (aa208-560, |C315A|) (Homo sapiens, UniProt Q93009, C315A)	0.00348
CC1(F)CC[C@@H](C(=O)N2CCC(O)(Cn3cnc(-c4ccc(F)cc4)c(N)c3=O)CC2)[C@H](c2ccccc2)C1 (relative stereo) [Example 127]	His-His-USP7 (aa208-560, |C315A|) (Homo sapiens, UniProt Q93009, C315A)	0.0466
Nc1c(Oc2cccc(O)c2)ncn(C[C@@]2(O)CCN(C(=O)[C@@H]3CCC(F)(F)C[C@H]3c3ccccc3)CC2(F)F)c1=O [Example 104]	His-His-USP7 (aa208-560, |C315A|) (Homo sapiens, UniProt Q93009, C315A)	0.041
Nc1c(Oc2cccc(C(=O)O)c2)ncn(CC2(O)CCN(C(=O)[C@@H]3CCC(F)(F)C[C@H]3c3ccccc3)CC2)c1=O [Example 63]	His-His-USP7 (aa208-560, |C315A|) (Homo sapiens, UniProt Q93009, C315A)	1.62

(P) NC(=O)c1ccc(Oc2ncn(CC3(O)CCN(C(=O)[C@@H]4CCC(F)(F)C[C@H]4c4ccccc4)CC3)c(=O)c2N)cc1Cl [Example 80]
(Q) CNc1c(Oc2ccccc2)ncn(CC2(O)CCN(C(=O)[C@@H]3CCC(F)(F)C[C@H]3c3ccccc3)CC2)c1=O [Example 9]
(R) Nc1c(Oc2ccc(F)cc2)ncn(CC2(O)CCN(C(=O)[C@@H]3CC[C@](F)(C#Cc4nccnc4Cl)C[C@H]3c3ccccc3)CC2)c1=O [Example 153]
(S) Nc1c(Oc2cccc(F)c2)ncn(CC2(O)CCN(C(=O)[C@@H]3CCC(F)(F)C[C@H]3c3ccccc3)CC2)c1=O [Example 6]
Challenge: Returns the items ordered by IC50, from maximum to minimum. List the labels, following the order given in the request.
Response given: P, S, Q, R

(A) NC(=O)c1ccc(Oc2ncn(CC3(O)CCN(C(=O)[C@@H]4CCC(F)(F)C[C@H]4c4ccccc4)CC3)c(=O)c2N)cc1F [Example 81]
(B) C#CC1(F)CC[C@@H](C(=O)N2CCC(O)(Cn3cnc(Oc4ccc(F)cc4)c(N)c3=O)CC2)[C@H](c2ccccc2)C1 (relative stereo) [Example 93]
Challenge: Between A and B , which one shows the larger IC50 value? Give the chosen item's label as your response.
Response given: A
(A: 0.403 µM, B: 0.0663 µM)

(A) N#Cc1cccc(Oc2ncn(CC3(O)CCN(C(=O)[C@@H]4CCC(F)(F)C[C@H]4c4ccccc4)CC3)c(=O)c2N)c1 [Example 25]
(B) CO[C@]1(C#Cc2ncc(C)cn2)CC[C@@H](C(=O)N2CC[C@](O)(Cn3cnc(Oc4ccc(F)cc4)c(N)c3=O)C(F)(F)C2)[C@H](c2ccccc2)C1 [Example 174]
(C) Nc1c(Oc2ccc(F)cc2)ncn(CC2(O)CCN(C(=O)[C@@H]3CC[C@](F)(C#Cc4cc(F)ccn4)C[C@H]3c3ccccc3)CC2)c1=O [Example 157]
Challenge: Returns the items ordered by IC50, from maximum to minimum. List the labels, following the order given in the request.
Response given: A, B, C

(a) Nc1c(Oc2ccccc2F)ncn(CC2(O)CCN(C(=O)[C@@H]3CCC(F)(F)C[C@H]3c3ccccc3)CC2)c1=O [Example 2]
(b) Nc1c(Oc2ccc(F)cc2)ncn(CC2(O)CCN(C(=O)[C@@H]3CC[C@](F)(C#Cc4cnccn4)C[C@H]3c3ccccc3)CC2)c1=O [Example 138]
(c) Nc1c(Oc2ccc(CO)cc2)ncn(CC2(O)CCN(C(=O)[C@@H]3CCC(F)(F)C[C@H]3c3ccccc3)CC2)c1=O [Example 23]
Challenge: rank_up(items): orders items by reported IC50 in ascending numerical order. List the labels, following the order given in the request.
Response given: b, c, a
(b: 0.0203 µM, c: 0.04 µM, a: 0.304 µM)

(1) CC(C)c1ccc(Oc2ncn(CC3(O)CCN(C(=O)[C@@H]4CCC(F)(F)C[C@H]4c4ccccc4)CC3)c(=O)c2N)cc1O [Example 120]
(2) Nc1c(Oc2ccc(F)cc2)ncn(CC2(O)CCN(C(=O)[C@@H]3CC[C@](F)(C#Cc4ccccc4)C[C@H]3c3ccccc3)CC2)c1=O [Example 135]
Challenge: Between 1 and 2 , which one shows the larger IC50 value? Give the chosen item's label as your response.
Response given: 2
(2: 0.0364 µM, 1: 0.0163 µM)

###

target entity: His-His-USP7 (aa208-560, |C315A|) (Homo sapiens, UniProt Q93009, C315A)
Construct: His-His-USP7 (aa208-560, |C315A|); His-His (N)
assay overview: Evaluation of the inhibition of USP7 by the Fluorescence Intensity (FLINT) readings
Format: biochemical
details: 0.25 nM His-His-USP7, compound incubated 60 minutes at 30° C., 500 nM Ubiquitin-Rhodamine-110 substrate; 50% reduction in kinetic rate
assay metric: IC50 (nM)

(I) CC(C)(C)NCc1ccc(Oc2ncn(CC3(O)CCN(C(=O)[C@@H]4CCC(F)(F)C[C@H]4c4ccccc4)CC3)c(=O)c2N)cc1
(II) CCc1cc(Oc2ncn(CC3(O)CCN(C(=O)[C@@H]4CCC(F)(F)C[C@H]4c4ccccc4)CC3)c(=O)c2N)ccc1Cl
(III) Nc1c(Oc2ccc(CCO)cc2)ncn(CC2(O)CCN(C(=O)[C@@H]3CCC(F)(F)C[C@H]3c3ccccc3)CC2)c1=O
(IV) NCc1ccc(Oc2ncn(CC3(O)CCN(C(=O)[C@@H]4CCC(F)(F)C[C@H]4c4ccccc4)CC3)c(=O)c2N)cc1
Challenge: Task for the reader: place the molecules above in descending order according to recorded IC50. List the labels, following the order given in the request.
Response given: II, III, I, IV
(II: 89.7 nM, III: 29 nM, I: 10 nM, IV: 4.2 nM)

(a) Nc1c(Oc2ccc(F)cc2)ncn(CC2(O)CCN(C(=O)[C@@H]3CC[C@](F)(C#Cc4cncnc4)C[C@H]3c3ccccc3)CC2)c1=O
(b) Nc1c(Oc2cccc(CO)c2)ncn(CC2(O)CCN(C(=O)[C@@H]3CCC(F)(F)C[C@H]3c3ccccc3)CC2)c1=O
Challenge: Between a and b , which one shows the larger IC50 value? Give the chosen item's label as your response.
Response given: b
(b: 53 nM, a: 21 nM)

(A) Nc1c(Oc2ccc(CCF)cc2)ncn(CC2(O)CCN(C(=O)[C@@H]3CCC(F)(F)C[C@H]3c3ccccc3)CC2)c1=O
(B) Cn1ccnc1C#C[C@@]1(F)CC[C@@H](C(=O)N2CCC(O)(Cn3cnc(Oc4ccc(F)cc4)c(N)c3=O)CC2)[C@H](c2ccccc2)C1
Challenge: Between A and B , which one shows the larger IC50 value? Give the chosen item's label as your response.
Response given: A
(A: 116 nM, B: 8.55 nM)

(1) Nc1c(Oc2ccc(F)cc2)ncn(CC2(O)CCN(C(=O)[C@@H]3CC[C@@](F)(C#Cc4ccccc4)C[C@H]3c3ccccc3)CC2)c1=O
(2) Nc1c(Oc2cccc(S(F)(F)(F)(F)F)c2)ncn(CC2(O)CCN(C(=O)[C@@H]3CCC(F)(F)C[C@H]3c3ccccc3)CC2)c1=O
Challenge: Between 1 and 2 , which one shows the larger IC50 value? Give the chosen item's label as your response.
Response given: 2
